What AC50 was measured for each of the following?
target: Alpha-1A adrenergic receptor (Homo sapiens); format: functional, cell-based; further: assay procedure not described here
Sequence (P35348 whole entry): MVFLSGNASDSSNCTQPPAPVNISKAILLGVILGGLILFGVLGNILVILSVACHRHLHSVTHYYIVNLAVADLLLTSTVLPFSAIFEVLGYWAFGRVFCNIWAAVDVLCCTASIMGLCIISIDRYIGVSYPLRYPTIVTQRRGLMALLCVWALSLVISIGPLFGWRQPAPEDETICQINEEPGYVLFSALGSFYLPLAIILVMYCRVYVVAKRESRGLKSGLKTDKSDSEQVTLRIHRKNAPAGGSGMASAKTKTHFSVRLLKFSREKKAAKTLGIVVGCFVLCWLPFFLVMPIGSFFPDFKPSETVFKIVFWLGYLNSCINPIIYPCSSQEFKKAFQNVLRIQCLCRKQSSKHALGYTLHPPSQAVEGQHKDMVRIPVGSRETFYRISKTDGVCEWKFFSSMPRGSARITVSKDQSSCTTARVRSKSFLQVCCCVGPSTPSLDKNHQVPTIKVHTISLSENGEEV

Name the recorded AC50 for `C(=N\NC1=NCCN1)/c1c2ccccc2c(/C=N/NC2=NCCN2)c2ccccc12` .
> 30 µM

Which value of AC50 has been reported for `OC[C@@H](O)[C@@H](O)[C@H](O)[C@H](O)CO` in the records?
> 30 µM

AC50 for `Oc1ncnc2[nH]ncc12` ?
> 30 µM

Value lookup for AC50; key = Cc1c(-c2ccccc2)oc2c(C(=O)OCCN3CCCCC3)cccc2c1=O [FLAVOXATE]
> 30 µM

What does the data say about its AC50? Entry: `CS(=O)(=O)c1ccc([C@@H](O)[C@@H](CO)NC(=O)C(Cl)Cl)cc1`
> 30 µM

Could you tell me which AC50 is on file for `CCN(CC)CCNc1ccc(C)c2sc3ccccc3c(=O)c12` ?
17.9 µM

Give its AC50 value. Item: `CCC(=O)c1c(O)cc(O)cc1O`
> 30 µM

# lookup: AC50 of `C[C@@H]1C[C@H]2[C@@H]3CCC4=CC(=O)C=C[C@]4(C)[C@@]3(F)[C@@H](O)C[C@]2(C)[C@H]1C(=O)CO`
> 30 µM

AC50 for CN1CCCC(CN2c3ccccc3Sc3ccccc32)C1 (centres undefined) ?
> 30 µM

----------
Record form. Attribute: AC50. Fill in for each entry.
target: Neuropeptide Y receptor type 1 (Homo sapiens, UniProt P25929); further: assay procedure not described here
Sequence (P25929 whole entry): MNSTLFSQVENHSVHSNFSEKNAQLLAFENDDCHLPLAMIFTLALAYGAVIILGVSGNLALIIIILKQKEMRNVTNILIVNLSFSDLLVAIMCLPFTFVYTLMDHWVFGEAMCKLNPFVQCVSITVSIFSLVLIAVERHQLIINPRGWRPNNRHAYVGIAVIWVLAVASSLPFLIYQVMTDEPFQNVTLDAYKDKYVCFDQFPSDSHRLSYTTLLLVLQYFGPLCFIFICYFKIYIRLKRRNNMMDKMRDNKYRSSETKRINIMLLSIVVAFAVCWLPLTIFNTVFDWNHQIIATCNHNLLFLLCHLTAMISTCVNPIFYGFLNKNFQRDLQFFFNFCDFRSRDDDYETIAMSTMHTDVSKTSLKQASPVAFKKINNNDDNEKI

Looking for the measured AC50 of COc1cc2c(cc1OC)C(=O)C(CC1CCN(Cc3ccccc3)CC1)C2 (configuration not stated) , can you help?
> 30 µM

Item COc1ccccc1OCC(O)COC(N)=O (configuration not stated) has what recorded AC50?
> 10 µM

Bench note: what AC50 did `CS(=O)(=O)c1ccc([C@@H](O)[C@@H](CO)NC(=O)C(Cl)Cl)cc1` show?
> 30 µM

// AC50 lookup, key: `COC(=O)N[C@H](C(=O)N[C@@H](Cc1ccccc1)[C@@H](O)CN(Cc1ccc(-c2ccccn2)cc1)NC(=O)[C@@H](NC(=O)OC)C(C)(C)C)C(C)(C)C`
> 30 µM

Any idea what AC50 was measured for `O=C(O)CCn1c2c(c3ccccc31)C[C@H](NS(=O)(=O)c1ccc(F)cc1)CC2` ?
> 30 µM

Given the molecule `CC(=O)N[C@H]1[C@H]([C@H](O)[C@H](O)CO)OC(C(=O)O)=C[C@@H]1N=C(N)N` , what is its reported AC50?
> 30 µM

Consider the molecule CC(C)(Oc1ccc(C2CC2(Cl)Cl)cc1)C(=O)O (configuration not stated) [CIPROFIBRATE] and give its measured AC50.
> 30 µM

# get_value(readout='AC50', item= `CCCCCN(C)CCC(O)(P(=O)(O)O)P(=O)(O)O` )
> 30 µM

Item under review: O=C(OCCN1CCOCC1)c1cccnc1Nc1cccc(C(F)(F)F)c1 [MORNIFLUMATE] . Reported AC50?
> 30 µM

Given the entry `CN[C@@H](C)[C@H](O)c1ccccc1` , report its measured AC50.
> 30 µM

Can you look up the measured AC50 of CN1C(=O)CC(C)(c2ccccc2)C1=O (configuration not stated) [METHSUXIMIDE] for me?
> 10 µM

# get_value(readout='AC50', item= `C[C@@H]1O[C@@H]1P(=O)(O)O` )
> 10 µM

// lookup AC50 for COC(=O)C1=C(C)NC(C)=C(C(=O)OC(C)C)C1c1cccc2nonc12 (configuration not stated)
> 30 µM

Fill in the blank: the reported AC50 of `CC1=CC(=O)c2ccccc2C1=O` is ____.
> 10 µM

I have this molecule here, COC(=O)C1=C(C)NC(C)=C(C(=O)OCC(C)C)C1c1ccccc1[N+](=O)[O-] (configuration not stated) , and I need its recorded AC50.
> 10 µM

What does the record list as AC50 for `Nc1nc2ccc(OC(F)(F)F)cc2s1` ?
> 30 µM

Given the entry `CCN(CC)CCOC(=O)c1ccc(N)cc1` , report its measured AC50.
> 30 µM

What does the data say about its AC50? Entry: `CN(C/C=C/c1ccccc1)Cc1cccc2ccccc12`
> 30 µM

Bench note: what AC50 did NS(=O)(=O)c1cc(Cl)c(Cl)c(S(N)(=O)=O)c1 [DICHLORPHENAMIDE] show?
> 10 µM

Fill in: AC50 of `Cc1c(Cl)cccc1Nc1ccccc1C(=O)O` is ___
> 30 µM

May I ask what AC50 has been recorded for `COc1cc(Nc2c(C#N)cnc3cc(OCCCN4CCN(C)CC4)c(OC)cc23)c(Cl)cc1Cl` ?
> 30 µM

Reported AC50 for CN(CCOc1ccc(NS(C)(=O)=O)cc1)CCc1ccc(NS(C)(=O)=O)cc1 [DOFETILIDE] : what is it?
> 30 µM

Using the record for `O=P(O)(O)C(O)(Cc1cccnc1)P(=O)(O)O` , report its AC50.
> 30 µM

Which AC50 is reported for this molecule? COc1c(C)c2c(c(O)c1C/C=C(\C)CCC(=O)OCCN1CCOCC1)C(=O)OC2 [MYCOPHENOLATE MOFETIL]
> 30 µM

// returns reported AC50 for input `COC(=O)[C@H]1[C@@H](OC(=O)c2ccccc2)C[C@@H]2CC[C@H]1N2C`
> 30 µM

I'd like to know its AC50. The molecule in question is `NC(N)=Nc1nc(CSCCC(N)=NS(N)(=O)=O)cs1`
> 30 µM

Given the entry `CC/C=C\C/C=C\C/C=C\CCCCCCCC(=O)O` , report its measured AC50.
> 30 µM

Field request: AC50 | item: `CN1CCc2cccc3c2[C@H]1Cc1ccc(O)c(O)c1-3`
> 20 µM

Value lookup for AC50; key = CC(C)[N+](C)(CCC(C(N)=O)(c1ccccc1)c1ccccc1)C(C)C [ISOPROPAMIDE]
> 10 µM

Fill in: AC50 of `CCc1nn(CCCN2CCN(c3cccc(Cl)c3)CC2)c(=O)n1CCOc1ccccc1` is ___
> 30 µM

What value of measured AC50 is listed for NS(=O)(=O)c1cc(-c2nnn[nH]2)c(NCc2cccs2)cc1Cl [AZOSEMIDE] ?
> 30 µM

Return reported AC50; argument: CC(C)C(=O)OCC(=O)[C@@]12O[C@H](C3CCCCC3)O[C@@H]1C[C@H]1[C@@H]3CCC4=CC(=O)C=C[C@]4(C)[C@H]3[C@@H](O)C[C@@]12C [CICLESONIDE]
> 10 µM

For `CN1C(=O)CC(=O)N(c2ccccc2)c2cc(Cl)ccc21` , what is its reported AC50?
> 10 µM

Any idea what AC50 was measured for `CCOC(=O)[C@H](CCc1ccccc1)N[C@@H](C)C(=O)N1CCC[C@H]1C(=O)O` ?
> 30 µM

Consider the molecule shown here: `N[C@@H](CSCC(=O)O)C(=O)O` What is its recorded AC50?
> 30 µM

Which AC50 is listed for CC(Cc1ccccc1)NCCC(c1ccccc1)c1ccccc1 (configuration not stated) ?
> 30 µM

Recorded AC50 for `O=C(Cn1ccnc1[N+](=O)[O-])NCc1ccccc1` , please?
> 30 µM

Provenance of the data: ChEMBL document CHEMBL5291721
